- targetEntity: T1, cynomolgus monkey IL-21R expressed on cells (cynomolgus monkey, UniProt G7Q0S8 41-559)
- T1 construct: whole, on cells
- measurementNotes: cell-based ELISA on CHO cells transiently expressing cynomolgus monkey IL-21R; HRP anti-human IgG, A450
readoutType: EC50 (read off the curve)

binder: AbD (antibody, IgG1, V domains shown, As for AbA: IgG1/lambda, CDR3 graft, residue limits derived; also called VHP/VL13) VH: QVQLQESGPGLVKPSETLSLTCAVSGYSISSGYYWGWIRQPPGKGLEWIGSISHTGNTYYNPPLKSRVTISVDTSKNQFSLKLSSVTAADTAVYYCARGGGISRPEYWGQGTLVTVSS VL: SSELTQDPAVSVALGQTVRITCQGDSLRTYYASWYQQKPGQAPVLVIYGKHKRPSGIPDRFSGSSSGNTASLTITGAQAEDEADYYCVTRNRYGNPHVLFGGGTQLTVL
readoutType: EC50 (read off the curve)
reportedValue: ~2 nM
--
binder: AbS (antibody, V domains shown, CDR3 graft, residue limits derived as for m29; also called VHP/VL6; VHPTM/VL6) VH: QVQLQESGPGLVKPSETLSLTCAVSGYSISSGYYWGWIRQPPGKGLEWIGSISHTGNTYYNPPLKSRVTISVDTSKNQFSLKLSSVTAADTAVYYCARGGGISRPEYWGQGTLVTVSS VL: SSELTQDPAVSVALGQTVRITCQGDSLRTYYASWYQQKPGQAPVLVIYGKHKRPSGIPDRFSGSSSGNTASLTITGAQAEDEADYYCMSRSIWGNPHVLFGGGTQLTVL
readoutType: EC50 (read off the curve)
reportedValue: ~0.5 nM
--
binder: AbC (antibody, IgG1, V domains shown, As for AbA: IgG1/lambda, CDR3 graft, residue limits derived; also called VHP/VL11) VH: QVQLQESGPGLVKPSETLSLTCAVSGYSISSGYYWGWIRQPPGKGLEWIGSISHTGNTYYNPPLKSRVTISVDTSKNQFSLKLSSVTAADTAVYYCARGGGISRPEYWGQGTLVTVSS VL: SSELTQDPAVSVALGQTVRITCQGDSLRTYYASWYQQKPGQAPVLVIYGKHKRPSGIPDRFSGSSSGNTASLTITGAQAEDEADYYCSSRSRHGNPHVLFGGGTQLTVL
readoutType: EC50 (read off the curve)
reportedValue: ~2 nM
